- assay.target: eNOS (Bos taurus (Bovine))
- conditions: read-out: Ki eNOS; recombinant isozyme
endpoint.name: pKi
Scale for pKi: -log10 of concentration given in mol/L; no unit attached.

So, Cc1cc(N)nc(C[C@H]2CNC[C@H]2NCCNCc2cccc(C(F)(F)F)c2)c1 [Compound 3] ? Its pKi was 3.94

====

- System: Sk-Mel28
- experiment: Cytotoxicity in melanoma cell line
- Assay type: cell-based
- conditions: Homo sapiens, SK-MEL-28
endpoint.name: IC50 (µM)
Report only the number, with the unit µM understood.

Consider Nc1cccc(C[C@H]2CN(Cc3ccccc3)C[C@H]2NCCCc2ccccc2)n1 . Its measured IC50 is 3.5

These entries and their values trace back to patent US9090589B2.
